Origin of the recorded values: patent US7253158B2

target-desc: γ-secretase (Homo sapiens, UniProt P49768)
Construct: uses a HEK293 membrane fraction as a source of γ-secretase; endogenous in cells; host or cells: HEK293 (microsomal membrane fraction, solubilised in 0.25% CHAPSO)
assay: in vitro γ-secretase assay (HEK293 membrane fraction, recombinant APP substrate, Abeta ELISA)
Type: biochemical
experimental-context: γ-secretase inhibition, table head prints none
property: IC50
I'd appreciate it if you wrote the number followed by its unit.

Worked cases, answers included:
COC(=O)c1ccc(C(C)N([C@@H]2CCCCNC2=O)S(=O)(=O)c2ccc(Cl)cc2)cc1 (some centres unmarked)	200 nM
CC(C)C1CCNC(=O)C(N(Cc2ccc(C(=O)NC3CC3)cc2)S(=O)(=O)c2ccc(Cl)cc2)C1 (racemic)	30 nM
CC1(C)CCNC(=O)[C@H](N(Cc2ccc(CCC(=O)O)cc2)S(=O)(=O)c2ccc(Cl)cc2)C1	10 nM

IC50 in this record for COC(=O)CCc1ccc(CN([C@@H]2CC(C)(C)CCNC2=O)S(=O)(=O)c2ccc(Cl)cc2)cc1 : 130 nM

IC50 in this record for O=C(NC1CC1)c1ccc(CN([C@@H]2CCCCNC2=O)S(=O)(=O)c2ccc(C(F)(F)F)cc2)cc1 : 260 nM
